protocol.notes: The drug is tested on Odoribacter splanchnicus strain: fecal isolate for biotransformation. The drug concentrations were measured before and after a 12-h incubation by liquid-chromatography-coupled mass spectrometry (LC–MS)
run.parameters: 2 µM
measured.property: Bacterial Biotransformation

Examples with their reported Bacterial Biotransformation follow.
# compound, measured.property, measurement
records = [
    ("CC(=O)CCCCn1c(=O)c2c(ncn2C)n(C)c1=O", "Bacterial Biotransformation", "Compound NOT metabolized"),
    ("CO[C@]12C[C@@H](COC(=O)c3cncc(Br)c3)CN(C)[C@@H]1Cc1cn(C)c3cccc2c13", "Bacterial Biotransformation", "Compound NOT metabolized"),
    ("CN1C(C(=O)Nc2ccccn2)=C(O)c2sccc2S1(=O)=O", "Bacterial Biotransformation", "Compound NOT metabolized"),
    ("C=CCc1ccccc1OCC(O)CNC(C)C (configuration not stated)", "Bacterial Biotransformation", "Compound NOT metabolized"),
    ("CC(C)(C)NC[C@H](O)COc1nsnc1N1CCOCC1.O=C(O)/C=C\\C(=O)O [TIMOLOL MALEATE]", "Bacterial Biotransformation", "Compound NOT metabolized"),
]

Inquiry: Give its Bacterial Biotransformation value. Item: CCN(CC)CCCC(C)Nc1c2ccc(Cl)cc2nc2ccc(OC)cc12 (configuration not stated)
Reply text: Compound NOT metabolized

Inquiry: Need Bacterial Biotransformation of CCOC(=O)C1=C(C)NC(C)=C(C(=O)OC)C1c1cccc([N+](=O)[O-])c1 (configuration not stated) , thanks.
Reply text: Compound metabolized

Inquiry: Form field: reported Bacterial Biotransformation of `NC12CC3CC(CC(C3)C1)C2`
Reply text: Compound NOT metabolized

Inquiry: For the compound shown here, CN(CCOc1ccc(CC2SC(=O)NC2=O)cc1)c1ccccn1.O=C(O)/C=C\C(=O)O (configuration not stated) [ROSIGLITAZONE MALEATE] , give the reported Bacterial Biotransformation.
Reply text: Compound NOT metabolized

Inquiry: For `O=C1[C@H](CC[C@H](O)c2ccc(F)cc2)[C@@H](c2ccc(O)cc2)N1c1ccc(F)cc1` , what is its reported Bacterial Biotransformation?
Reply text: Compound NOT metabolized

Inquiry: Quick check: Bacterial Biotransformation of `CN1CCN(C2=Nc3cc(Cl)ccc3Nc3ccccc32)CC1` ?
Reply text: Compound NOT metabolized

Inquiry: // query Bacterial Biotransformation value for entry CC(C)C[C@H]1C(=O)N2CCC[C@H]2[C@]2(O)O[C@](NC(=O)[C@@H]3C=C4c5cccc6[nH]c(Br)c(c56)C[C@H]4N(C)C3)(C(C)C)C(=O)N12.CS(=O)(=O)O [BROMOCRIPTINE MESYLATE]
Reply text: Compound metabolized

Data provenance is ChEMBL document CHEMBL5303573.
